experiment: suppression of endothelial VCAM-1 upregulation – imaging, high-content imaging, pooled HUVEC, TNFa stimulus (AID 456); conditions: HUVEC TNFa-induced VCAM-1 surface expression, immunofluorescence imaging;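 compounds screened at 5 µM final in the well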
Screen size: about 10,000 compounds; about 25 (0.2%) were called active.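 Rule for the calls: active = top tenth filtered wells with inhibition above zero that passed visual or statistical confirmation; inactive = the rest, including hits rejected on review.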 The list comes from a sample in which actives are over-represented; it also holds close analogues and randomly drawn compounds. Potency and affinity values are given separately.
The reply should name one outcome from true (active), false (inactive)

O=C(CC(SCCO)c1ccc2c(c1)OCO2)c1ccco1 (configuration not stated): false
COc1ccc2cc3cc(C(=O)NCC4CCCO4)oc3nc2c1 (configuration not stated): false
Cc1ccc(CCSCC(=O)O)cn1: false
O=S(=O)(c1ccc2ccccc2c1)N1CCCCC1: false
CCOC(=O)c1ccccc1NC1c2ccccc2C(=O)N1C1CCN(C(=O)OCC)CC1 (configuration not stated): false

I would be grateful if you could indicate the recorded call for O=C(c1nn2cccnc2c1Cl)N1CCN(c2ccccc2)CC1 . false

In this assay, the call recorded for CCOC(=O)N1CCC(N2C(=O)c3ccccc3C2Nc2cc(Cl)c(OC)cc2OC)CC1 (configuration not stated) was what? true

I would be grateful if you could indicate the recorded call for Cc1nnc(NC(=O)c2ccccc2F)s1 . false

###

experiment: suppression of endothelial VCAM-1 upregulation – imaging, high-content imaging, pooled HUVEC, TNFa stimulus (AID 456); conditions: HUVEC TNFa-induced VCAM-1 surface expression, immunofluorescence imaging;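 compounds screened at 5 µM final in the well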;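 for inhibition: VCAM-1 immunofluorescence minus red nonspecific channel after plate median normalization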
In all, about 10,000 compounds went through this assay and about 25 (0.2%) were called active. The sample holds actives, similar compounds and a random draw of the others, so the mix is not that of the screen. Entries with a potency or affinity are not part of this list.
attribute measured: inhibition

O=C(CC1Oc2ccccc2NC1=O)NCCCN1CCOCC1 (stereo unspecified): inactive
O=C(c1csc2ccccc12)N1CCCCCC1: inactive
Cn1c(=O)cc(OCCCC(=O)N2CCCCC2)c2ccccc21: 102% (inactive)
CCOC(=O)CSc1nc2ccccc2c(=O)n1CCN1CCOCC1: inactive
Cn1c(=O)c2c(nc(SCCCC#N)n2Cc2ccccc2F)n(C)c1=O: inactive

Reported inhibition ( Cc1cc(NC(=O)CSc2nnc(COc3cccc(C)c3C)n2Cc2ccco2)no1 ) = inactive

Entry under test: Cn1c(=O)c2c(nc(SCCCC#N)n2Cc2c(F)cccc2Cl)n(C)c1=O . Its inhibition was 72.9% (active)

// CCOc1ccc(N(CC(=O)Nc2ccc(C)c(C)c2)S(=O)(=O)c2c(C)noc2C)cc1 : inhibition value = inactive

###

experiment: suppression of endothelial VCAM-1 upregulation – imaging, high-content imaging, pooled HUVEC, TNFa stimulus (AID 456); settings: HUVEC TNFa-induced VCAM-1 surface expression, immunofluorescence imaging;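 compounds screened at 5 µM final in the well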
In all, about 10,000 compounds went through this assay and about 25 (0.2%) were called active.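 How the source made its calls: active means top tenth filtered wells with inhibition above zero that passed visual or statistical confirmation; inactive means the rest, including hits rejected on review.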 This is one part of a sample in which actives are shown more often than they occur. Potency and affinity values are given separately.
Answer with one of the outcomes yes (1) for active, no (0) for inactive

Example results:
CCOCCCNC(=O)C1CCCN(S(=O)(=O)CC)C1 (stereo not drawn): no (0)
CCn1nnc(NC(=O)c2cc3ccccc3o2)n1: no (0)
Cc1ccccc1-c1nc(CN2CCC(C(=O)N3CCC(C(N)=O)CC3)CC2)c(C)o1: no (0)
CSc1ncc(Cl)c(C(=O)Nc2ccc(S(=O)(=O)N3CCOCC3)cc2)n1: no (0)
COc1ccc(CCNC(=O)C2CCN(Cc3nc(-c4cccc(Cl)c4)oc3C)CC2)cc1OC: no (0)
CN(C)CCCN1c2ccccc2CCc2ccccc21: no (0)
CN(c1cccc(NC(=O)COc2ccccc2)c1)S(C)(=O)=O: no (0)
CCOc1ccc(C(c2nnnn2Cc2ccccc2)N2CCN(C(=O)c3ccco3)CC2)cc1 (stereo not drawn): no (0)
CCCCC(=NCCO)C1=C(O)C(C(=O)OC)C(C)(C)CC1=O (stereo not drawn): no (0)
C=CCn1c(SCC(=O)NCC2CCCO2)nnc1C1CCCCC1 (stereo not drawn): no (0)

Could you kindly confirm the outcome this assay logged for CCn1c(-c2cc(Br)ccc2O)n[nH]c1=S ? no (0)

Write down the call the test reported for this compound. Item: CC1CCc2nn(CC(=O)NCc3ccc4c(c3)OCO4)cc2C1 (stereo not drawn) no (0)

Write down the call the test reported for this compound. Item: CNCCCN1c2ccccc2CCc2ccccc21 no (0)

Dear all, I need the recorded test outcome for COC(=O)c1c(N)sc(C(=O)N2CCOCC2)c1C , thank you. no (0)
